Please respond with reported koff for every item in the list.
Target: T1, monkey C5-mmh (monkey, UniProt P01031 19-1676 (human entry), limits assumed)
T1 construct: Recombinant monkey C5 with a C-terminal myc-myc-hexahistidine tag
T1 chain: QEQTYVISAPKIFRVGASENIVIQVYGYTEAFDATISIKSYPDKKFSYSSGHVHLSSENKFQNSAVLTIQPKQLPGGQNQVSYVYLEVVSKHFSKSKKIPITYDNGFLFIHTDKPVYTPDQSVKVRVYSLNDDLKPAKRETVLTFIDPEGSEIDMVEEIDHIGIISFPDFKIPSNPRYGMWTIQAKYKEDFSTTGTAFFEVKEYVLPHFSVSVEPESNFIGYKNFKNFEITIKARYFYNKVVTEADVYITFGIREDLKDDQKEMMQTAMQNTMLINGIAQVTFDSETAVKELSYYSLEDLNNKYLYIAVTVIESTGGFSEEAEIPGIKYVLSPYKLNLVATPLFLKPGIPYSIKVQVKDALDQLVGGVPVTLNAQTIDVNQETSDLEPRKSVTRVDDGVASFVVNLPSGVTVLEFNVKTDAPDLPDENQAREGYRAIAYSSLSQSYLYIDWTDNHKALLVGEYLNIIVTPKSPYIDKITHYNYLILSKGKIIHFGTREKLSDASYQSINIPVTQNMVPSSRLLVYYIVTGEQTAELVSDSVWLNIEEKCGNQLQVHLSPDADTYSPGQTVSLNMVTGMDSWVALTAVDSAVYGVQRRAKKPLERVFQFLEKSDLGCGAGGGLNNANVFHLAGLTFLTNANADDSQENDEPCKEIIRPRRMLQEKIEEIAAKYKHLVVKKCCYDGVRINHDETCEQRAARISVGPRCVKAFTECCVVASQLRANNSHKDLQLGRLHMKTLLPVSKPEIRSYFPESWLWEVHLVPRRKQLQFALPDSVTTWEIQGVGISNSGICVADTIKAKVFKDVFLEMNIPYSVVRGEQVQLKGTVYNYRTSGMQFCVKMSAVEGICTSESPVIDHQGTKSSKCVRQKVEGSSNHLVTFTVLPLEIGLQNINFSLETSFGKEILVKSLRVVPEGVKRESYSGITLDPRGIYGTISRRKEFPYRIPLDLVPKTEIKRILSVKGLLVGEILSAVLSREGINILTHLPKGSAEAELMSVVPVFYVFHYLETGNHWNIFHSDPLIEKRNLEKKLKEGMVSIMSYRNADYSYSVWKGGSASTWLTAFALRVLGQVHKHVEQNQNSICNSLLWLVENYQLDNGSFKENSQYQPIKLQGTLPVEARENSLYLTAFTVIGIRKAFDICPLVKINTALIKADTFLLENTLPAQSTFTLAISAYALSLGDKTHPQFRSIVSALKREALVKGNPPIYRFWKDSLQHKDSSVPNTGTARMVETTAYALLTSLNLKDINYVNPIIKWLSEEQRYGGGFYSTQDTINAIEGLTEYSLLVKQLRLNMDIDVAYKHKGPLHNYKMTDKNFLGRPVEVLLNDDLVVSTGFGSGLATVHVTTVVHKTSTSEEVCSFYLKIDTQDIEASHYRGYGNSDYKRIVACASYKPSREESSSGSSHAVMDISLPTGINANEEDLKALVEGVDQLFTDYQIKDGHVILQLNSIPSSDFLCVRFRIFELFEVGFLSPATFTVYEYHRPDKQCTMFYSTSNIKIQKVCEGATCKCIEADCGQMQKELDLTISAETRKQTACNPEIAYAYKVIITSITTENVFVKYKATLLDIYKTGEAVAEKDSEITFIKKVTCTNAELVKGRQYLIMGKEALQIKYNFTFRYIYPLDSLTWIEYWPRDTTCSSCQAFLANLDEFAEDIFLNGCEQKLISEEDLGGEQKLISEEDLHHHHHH
Assay: SPR, mAb captured via anti-hFc, 37C
In your response, put the unit directly after the numeric value.

H4H12164P (antibody, human IgG4, V domains shown, Human IgG4 Fc with S108P hinge mutation (H4H)) VH: EVQLVESGGGLVRSGGSLRLSCAASGFTFNRYAMTWVRQAPGKGLEWVSAISGSGSSTYYTDSVKGRFTISRDNSKNSVDLQMHSLRVEDTAIYYCARGTTVTTGYGMDVWGQGTTVTVSS VL: DIQMTQSPSSLSASVGDRVTFTCQASQDITNSLNWYQQKPGRAPKLLIYDASYLKAGVPSRFSGSGSGTDFTFTISSLQPEDIATYYCQQYDDLPYTFGQGTKLEIK : 0.00117 s⁻¹
H4H12159P (antibody, human IgG4, V domains shown, Human IgG4 Fc with S108P hinge mutation (H4H)) VH: QVQLVESGGGVVQPGRSLRLSCGASGFTFSTYGMHWVRQAPGKGLEWVAVIWDDGNNKYYADSVKGRFTISRDNSKNTLYLQMNSLRAEDTAVYYCARDSEVAPVGDYWGQGTLVTVSS VL: DIQMTQSPSTLSASVGDRVTIICRASQSINRWLAWYQQKPGKAPKLLIYKASSLESGVPSRFSGSGSGTEFTLTISSLQPDDFAAYYCQQYNDYSYTFGQGTKLEIK : 5.5e-05 s⁻¹
H4H12169P (antibody, human IgG4, V domains shown, Human IgG4 Fc with S108P hinge mutation (H4H)) VH: EVQLVESGGGLAQPGGSLRLSCAASGFTFRSYAMSWVRQAPGKGPEWVSGIGGNGVTTYYADSVKGRFTISRDNSKNTLFLQMNSLRAEDTAVYYCVQGGLGGYFTGYWGQGTLVTVSS VL: DIQMTQSPSSLSASVGDRVTITCRASQSISTYLNWYQQNPGKAPKLLIFDASSLQSGVPSRFSGSGSGTDFTLTIRGLQPEDFATYYCQQSYSAPLTFGGGTKVEIK : 0.00361 s⁻¹
H4H12168P (antibody, human IgG4, V domains shown, Human IgG4 Fc with S108P hinge mutation (H4H)) VH: QVQLVESGGGVVQPGGSLRLSCAASGFTFGGHAMHWVRQAPGKGLEWLAVISSDGSNKQYADSVKGRFTISRDNPKNTLYLQMNSLRVGDTAIYYCAKEVAPRYYYYGLDVWGQGTTVTVSS VL: DIQMTQSPSSLSASVGDRVTITCRASQDISNFLAWYQQKPGKVPKLLIYTASTLQSGVPSRFSGSGSGTDFTLTVSSLQPEDVATYYCQKYAGALTFGPGTKVDIK : 0.000676 s⁻¹
H4H12175P (antibody, human IgG4, V domains shown, Human IgG4 Fc with S108P hinge mutation (H4H)) VH: EVQLVESGGGVVQPGGSLRLSCAASGFTFNDYAMHWVRQAPGKGLEWVSLISGDGGNTYYADSVKGRLTISRDNSKNSLYLQMNSLRTEDTALYYCAKDKGWNFGYFDLWGRGTLVTVSS VL: DIQMTQSPSSLSTSVGDRVTITCRASQNIDTYLNWYQQKPGKAPKLLIYDASSLQSGVPSRFSGSGSGTDFTLTITSLQPEDFATYYCQQNDNILHPLTFGGGTKVEIK : 0.00276 s⁻¹

Give koff for each listed item.
1. H4H12161P (antibody, human IgG4, V domains shown, Human IgG4 Fc with S108P hinge mutation (H4H)) VH: EVQLVESGGDLVQPGGSLRLSCAASGFTFSDHYMDWVRQAPGKGLDWIGRIRNKANAYNTEYAASVRGRFTISRDDSQNLLYLQMNSLKTDDTAVYYCVRVWNYAYFAMDVWGQGTTVTVSS VL: DIQMTQSPSSLSASVGDRVTITCRSSQNIGIFLNWYQQKPGEAPNLLISAASSLHSGVPSRFSGSGSGTDFTLTIGSLQPEDFATYYCQQTYNTIFTFGPGTKVDIK
2. H4H12166P7 (antibody, human IgG4, V domains shown, Histidine-mutated CDR variant of H4H12166P; human IgG4 Fc with S108P) VH: QVQLQESGPGLVKPSETLSLTCTVSGDSVSSSYWTWIRQPPGKGLEWIGYIYYSGSSNYNPSLKSRATISVDTSKNQFSLKLSSVTAADTAVYYCAREHNVDTTMIFDYWGQGTLVTVSS VL: AIQMTQSPSSLSASVGDRVTITCRASQGIRNDLGWYQQKPGKAPKLLIYAASSLQSGVPSRFAGRGSGTDFTLTISSLQPEDFATYYCLQDFNYPWHFGQGTKVEIK
3. H4H12170P (antibody, human IgG4, V domains shown, Human IgG4 Fc with S108P hinge mutation (H4H)) VH: QVQLVESGGGVVQPGRSLRLSCAASGFTFSGYGMHWVRQAPGKGLEWVALIWLDGSNDYYADSVKGRFTISRDNSKNTLYLQMNRLRAEDTAVYYCARDGPVAAIPDYWGQGTLVTVSS VL: DIQMTQSPSTLSASVGDRVTITCRASQSISRWLAWYQLKPGKAPKLLIYKASSLESGVPSRFSGSGSGTDFTLTISSLQPDDFATYYCQQYNTYSYTFGQGTKLEIK

### Response
0.000745 s⁻¹
0.00241 s⁻¹
0.000871 s⁻¹
